Hello, the source for this data is ChEMBL document CHEMBL1138722, in case you need it.

- assay system: Prostaglandin G/H synthase 1 (Homo sapiens, UniProt P23219)
- Sequence (P23219 whole entry): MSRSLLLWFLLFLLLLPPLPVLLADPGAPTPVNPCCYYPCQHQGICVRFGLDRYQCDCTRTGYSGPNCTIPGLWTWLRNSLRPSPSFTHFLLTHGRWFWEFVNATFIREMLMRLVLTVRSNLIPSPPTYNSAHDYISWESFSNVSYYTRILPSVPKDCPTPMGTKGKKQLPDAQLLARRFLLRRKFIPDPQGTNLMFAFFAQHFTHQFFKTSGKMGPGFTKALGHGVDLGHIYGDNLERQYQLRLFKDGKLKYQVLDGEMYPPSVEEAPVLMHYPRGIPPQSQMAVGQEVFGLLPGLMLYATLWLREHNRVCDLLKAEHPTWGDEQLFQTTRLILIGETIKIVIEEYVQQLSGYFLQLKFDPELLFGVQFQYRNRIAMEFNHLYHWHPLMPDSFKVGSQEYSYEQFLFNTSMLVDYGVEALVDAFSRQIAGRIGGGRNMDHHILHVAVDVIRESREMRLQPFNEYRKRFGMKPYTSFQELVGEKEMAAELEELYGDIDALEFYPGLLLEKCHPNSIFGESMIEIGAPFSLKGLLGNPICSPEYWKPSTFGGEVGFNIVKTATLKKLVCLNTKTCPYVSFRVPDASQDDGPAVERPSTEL
- protocol summary: In vitro inhibition of Prostaglandin G/H synthase 1 in human whole blood at 100 uM
- Assay type: tissue-based
Binary call on inhibition: 1.0 from 60% upward, 0.0 beneath that.

Here's what some known entries look like.
molecule	assay system	category label
COC1(c2cc(-c3ccc(S(C)(=O)=O)cc3)n(-c3ccc(Br)cc3)n2)CCCO1 (configuration not stated)	Prostaglandin G/H synthase 1 (Homo sapiens, UniProt P23219)	1.0
COC1(c2cc(-c3ccc(S(C)(=O)=O)cc3)n(-c3ccc(C)cc3)n2)CCCO1 (configuration not stated)	Prostaglandin G/H synthase 1 (Homo sapiens, UniProt P23219)	0.0

// switching to the query molecule
Form field: inhibition at least 60%? Entry: COC1(c2cc(-c3ccc(S(C)(=O)=O)cc3)n(-c3ccccc3)n2)CCCO1 (configuration not stated)
0.0
